Reference source: patent US20260193326A1

molecular target: T1, AAV5 (adeno-associated virus 5); experiment: SPR, AAV amine-coupled to CM5 chip;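 further: nanobodies flowed as analyte at seven concentrations spanning 1–100 nM over immobilized AAV (500–800 RU), kinetic constants derived by fitting the binding curves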
T1 construct: also called adeno-associated virus serotype 5
Measured quantity: koff (s⁻¹)
One number for each entry, in s⁻¹.

Could you report koff for every entry in the following list?
1. A4-063 (VHH) VHH: VQLQESGGGLVQPGGSLRLSCAASGRRFTINTMGWYRRAPGKQRELVATITRGGSTNYAGSVKGRFTISRDNPKNTVYLQMNSLRPEDTAVYYCHIDEVRQSSWTTSNLWGQGTQVTVSS
2. A4-064 (VHH) VHH: VQLQESGGGLVQSGGSLRLSCAASGRNFSLNTVGWYRQAPGKQRELVATVTSGGGTNYAGSVKGRFTISRDNAKNTVYLQMNSLRPEDTAVYYCHVDEVRESTWTTSNLWGQGTQVTVSS
3. A4-070 (VHH) VHH: VQLQESGGGLVQPGGSLRLSCAASGSIFSINSMGWYRQAPGKWRELVATVTRGGSTNYANSVKGRFTISRDNAKNTVYLQMNTLRPEDTAVYYCHLDEVRDSSWTTSNLWGQGTQVTVSS
4. A4-086 (VHH) VHH: VQLQESGGGLVQPGGSLRLSCAASGSRFSLNTMGWYRQAPGKQRELVAAVTRGGNTNYADFVKGRFTISRDNAKNTVYLQMNSLRPEDTAVYYCHVDELRESSWTTSNLWGQGTQVTVSS
5. A4-081 (VHH) VHH: VQLQESGGGLVQPGGSLRLSCAASGSRFSLNTMGWYRQAPGKQRELVATVTRGGSTNYADSVKGRFTISRDNAKNTVYLQMNSLRPEDTAVYYCHVDELRESGWTTSNLWGQGTQVTVSS
6. A4-092 (VHH) VHH: VQLQESGGGLVQTGGSLRLSCLASGSIFSINTMGWYRQRAGKQRELVATVTRAGSTNYADSVKGRFTISRDNAKNTVYLQMNSLRPEDTAVYYCHVDEIRESSWTTSNLWGQGTQVTVSS
7. A4-099 (VHH) VHH: VQLQESGGGLVQTGGSLRLSCAASGSSFSINTMGWYRQAPGKWRELVAAVTRGGDTNYAESVKGRFTISRDNGKNTVYLQMNSLRPEDTAVYYCHIDEIRESSWTTSNLWGQGTQVTVSS

[0.00834, 0.00046, 0.00064, 0.00107, 0.00146, "1e-05", 0.00041]

Which koff is reported for this binder? A4-076 (VHH) VHH: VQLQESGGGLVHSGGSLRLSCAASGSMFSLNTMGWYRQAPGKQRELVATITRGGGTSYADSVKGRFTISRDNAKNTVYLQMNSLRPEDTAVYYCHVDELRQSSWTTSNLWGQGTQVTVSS
0.00015
